Assay: Sodium fluorescein permeability across epithelial-endothelial co-culture
Assay type: in vitro ADME
Details: human; H441/HUVEC co-culture at ALI; S.D. 1.63e-5 cm/s, 95% CI 1.53e-6-1.25e-5 cm/s
Counter-ions that a name gives are not always drawn.
ASSAY_ENDPOINT: Papp at 2 h, 30 µM (×10⁻⁶ cm/s)
Give bare numbers, in ×10⁻⁶ cm/s.

-- ask Indicate its recorded Papp at 2 h, 30 µM; the compound in question is O=C1OC2(c3ccc(O)cc3Oc3cc(O)ccc32)c2ccccc21 [NaFL, Fluorescein sodium salt]
-- reply 7.04
